- Tested on: HN5
- assay_summary: Antiproliferative activity against human HN5 cells overexpressing EGFR after 3 days by methylene blue staining
- condition_context: HN5, 72 h
pIC50: −log10 of the molar value.
Returns one of T or F; T when pIC50 is >= 7.

Use these answered entries as a reference point.
molecular_string | test_system | group
CNC(=O)O[C@H]1CN[C@H](C#Cc2cc3ncnc(Nc4ccc(OCc5cccc(F)c5)c(Cl)c4)c3s2)C1 | HN5 | T
CS(=O)(=O)N1CCC[C@@H]1C#Cc1cc2ncnc(Nc3ccc(OCc4cccc(F)c4)c(Cl)c3)c2s1 | HN5 | F

Field: next compound
[ask] Please indicate if the recorded pIC50 for `COCCN1CCC[C@@H]1C#Cc1cc2ncnc(Nc3ccc(OCc4cccc(F)c4)c(Cl)c3)c2s1` meets or exceeds 7.
[reply] F
